# test.system: G12V-mutant human KRAS (amino acid residues 1-188) (Homo sapiens, UniProt P01116, G12V)
# Construct: G12V-mutant human KRAS (amino acid residues 1-188) with FLAG tag was purified from E. coli; made in house; host or cells: E. coli
# procedure.summary: KRAS Binding Competition Assay (AlphaScreen; biotinylated KRpep-2d analogue), G12V
# study.conditions: geometric mean, read-out: KRAS GMean IC50 (uM) MUTATION: G12V
Catalogue of molecules with associated IC50

Study these solved cases before continuing.
{"molecule": "O=Cc1cccc2[nH]cc(-c3c(F)cc4c(N5C[C@H]6CC[C@@H](C5)N6)nc(OCC56CCCN5CCC6)nc4c3F)c12", "IC50": "10 to 100 µM"}
{"molecule": "CN1CCC[C@H]1COc1nc(N2[C@@H]3CC[C@H]2CN(C(=O)NCc2ccccn2)C3)c2ccc(-c3cc(O)cc4ccccc34)cc2n1", "IC50": "10 to 100 µM"}

Would you mind telling me what IC50 value was observed for `CN1CCC[C@H]1COc1nc(N2C[C@H]3CC[C@@H](C2)N3)c2ccc(-c3cc(N)cc(F)c3F)cc2n1` ? 10 to 100 µM

Which value of IC50 has been reported for `Cc1cc(C(=O)N2[C@@H]3CC[C@H]2CN(c2nc(OCC45CCCN4CCC5)nc4cc(-c5cc(O)cc6ccccc56)ccc24)C3)[nH]c(=O)n1` in the records? 10 to 100 µM

So what's the measured IC50 for this one? CN1CCCC1COc1nc(N2C[C@H]3CC[C@@H](C2)N3C(=O)NCC(N)=O)c2ccc(-c3cc(O)cc4ccccc34)c(F)c2n1 (stereo partly drawn) 0.0001 to 10 µM

For the molecule shown here, `CN(C)S(=O)(=O)CC(=O)N1[C@@H]2CC[C@H]1CN(c1nc(OCC34CCCN3CCC4)nc3c(F)c(-c4cc(O)cc5ccccc45)ccc13)C2` , give the reported IC50. 0.0001 to 10 µM
